Entry source: paper PMC5914176

Assay text: in vitro
Study conditions: female, CD9, mouse, microsomes, pH 7.4, CLint’, Table 3, mean ± SD, three replicates
Attribute measured: CLint scaled at 0.8 µM (L/h/kg)

CCCC(C)N1CCC(N(Cc2ccccc2)C(=O)Nc2ccc(F)c(C(F)(F)F)c2)CC1 (stereo not drawn) [Compound 35]; 8.7

1: CCCC(C)N1CCC(N(Cc2ccccc2)C(=O)Nc2ccc(Cl)c([N+](=O)[O-])c2)CC1 (stereo not drawn) [Compound 31]
2: CCCC(C)N1CCC(N(Cc2ccccc2)C(=O)Nc2ccc(F)c(F)c2)CC1 (stereo not drawn) [Compound 32]
## Task # min-compare on CLint scaled at 0.8 µM between 1 and 2 Mark your selection by writing its label.
## Result 1
(1: 9.06 L/h/kg, 2: 18.1 L/h/kg)
